Hey, just so you know, these numbers are from paper PMC4055595.

Assay: Rat plasma pharmacokinetics after single-dose vehicle/SLE and digoxin or GE
Type: in vivo, Sprague-Dawley rats
Conditions: rats, control: single vehicle, 2 h later digoxin 0.5 mg/kg or GE 120 mg/kg ig
MEASUREMENT KIND: Cl_F_obs (L/h)

1) CC(C)=CCC[C@](C)(O[C@@H]1O[C@H](CO[C@@H]2O[C@H](CO)[C@@H](O)[C@H](O)[C@H]2O)[C@@H](O)[C@H](O)[C@H]1O)[C@H]1CC[C@]2(C)[C@@H]1[C@H](O)C[C@@H]1[C@@]3(C)CC[C@H](O[C@@H]4O[C@H](CO)[C@@H](O)[C@H](O)[C@H]4O[C@@H]4O[C@H](CO)[C@@H](O)[C@H](O)[C@H]4O)C(C)(C)[C@@H]3CC[C@]12C [Rb1, ginsenoside Rb1]
0.007

---

Examples of compounds with documented AUC follow.
Experiment: Rat plasma pharmacokinetics after single-dose vehicle/SLE and digoxin or GE
Assay type: in vivo, Sprague-Dawley rats
Conditions: female, Sprague-Dawley, rat, plasma, po, rats, single SLE 500 mg/kg ig, 2 h later digoxin 0.5 mg/kg or GE 120 mg/kg ig
MEASUREMENT KIND: AUC (ng·h/mL)

1) CC(C)=CCC[C@](C)(O[C@@H]1O[C@H](CO[C@@H]2O[C@H](CO)[C@@H](O)[C@H](O)[C@H]2O)[C@@H](O)[C@H](O)[C@H]1O)[C@H]1CC[C@]2(C)[C@@H]1[C@H](O)C[C@@H]1[C@@]3(C)CC[C@H](O[C@@H]4O[C@H](CO)[C@@H](O)[C@H](O)[C@H]4O[C@@H]4O[C@H](CO)[C@@H](O)[C@H](O)[C@H]4O)C(C)(C)[C@@H]3CC[C@]12C [Rb1, ginsenoside Rb1]
18500
2) CC(C)=CCC[C@](C)(O[C@@H]1O[C@H](CO)[C@@H](O)[C@H](O)[C@H]1O)[C@H]1CC[C@]2(C)[C@@H]1[C@H](O)C[C@@H]1[C@@]3(C)CC[C@H](O[C@@H]4O[C@H](CO)[C@@H](O)[C@H](O)[C@H]4O[C@@H]4O[C@H](CO)[C@@H](O)[C@H](O)[C@H]4O)C(C)(C)[C@@H]3CC[C@]12C [Rd, ginsenoside Rd]
7960
3) CC(C)=CCC[C@](C)(O[C@@H]1O[C@H](CO[C@@H]2OC[C@H](O)[C@H](O)[C@H]2O)[C@@H](O)[C@H](O)[C@H]1O)[C@H]1CC[C@]2(C)[C@@H]1[C@H](O)C[C@@H]1[C@@]3(C)CC[C@H](O[C@@H]4O[C@H](CO)[C@@H](O)[C@H](O)[C@H]4O[C@@H]4O[C@H](CO)[C@@H](O)[C@H](O)[C@H]4O)C(C)(C)[C@@H]3CC[C@]12C [Rb2, ginsenoside Rb2]
22300
4) C[C@H]1O[C@@H](O[C@H]2[C@@H](O)C[C@H](O[C@H]3[C@@H](O)C[C@H](O[C@H]4CC[C@@]5(C)[C@H](CC[C@@H]6[C@@H]5C[C@@H](O)[C@]5(C)[C@@H](C7=CC(=O)OC7)CC[C@]65O)C4)O[C@@H]3C)O[C@@H]2C)C[C@H](O)[C@@H]1O [Digoxin, digoxin, reference compound]
84.4

---

Assay: Rat plasma pharmacokinetics after single-dose vehicle/SLE and digoxin or GE
Type: in vivo, Sprague-Dawley rats
Settings: female, Sprague-Dawley, rat, plasma, po, rats, control: single vehicle (0.5% sodium CMC), 2 h later digoxin 0.5 mg/kg or GE 120 mg/kg ig; read-out: t1/2 (converted)
MEASUREMENT KIND: half-life (h)

1) CC(C)=CCC[C@](C)(O[C@@H]1O[C@H](CO)[C@@H](O)[C@H](O)[C@H]1O)[C@H]1CC[C@]2(C)[C@@H]1[C@H](O)C[C@@H]1[C@@]3(C)CC[C@H](O[C@@H]4O[C@H](CO)[C@@H](O)[C@H](O)[C@H]4O[C@@H]4O[C@H](CO)[C@@H](O)[C@H](O)[C@H]4O)C(C)(C)[C@@H]3CC[C@]12C [Rd, ginsenoside Rd]
75.4

---

Examples of molecules with documented Cmax follow.
Experiment: Rat plasma pharmacokinetics after 10-day vehicle/SLE and digoxin or GE
Type: in vivo, Sprague-Dawley rats
Conditions: female, Sprague-Dawley, rat, plasma, po, rats, control: vehicle once a day for 10 days, day 11 digoxin 0.5 mg/kg or GE 120 mg/kg ig
MEASUREMENT KIND: Cmax (ng/mL)

1. C[C@H]1O[C@@H](O[C@H]2[C@@H](O)C[C@H](O[C@H]3[C@@H](O)C[C@H](O[C@H]4CC[C@@]5(C)[C@H](CC[C@@H]6[C@@H]5C[C@@H](O)[C@]5(C)[C@@H](C7=CC(=O)OC7)CC[C@]65O)C4)O[C@@H]3C)O[C@@H]2C)C[C@H](O)[C@@H]1O [Digoxin, digoxin, reference compound]
11.8
2. CC(C)=CCC[C@](C)(O[C@@H]1O[C@H](CO)[C@@H](O)[C@H](O)[C@H]1O)[C@H]1CC[C@]2(C)[C@@H]1[C@H](O)C[C@@H]1[C@@]3(C)CC[C@H](O[C@@H]4O[C@H](CO)[C@@H](O)[C@H](O)[C@H]4O[C@@H]4O[C@H](CO)[C@@H](O)[C@H](O)[C@H]4O)C(C)(C)[C@@H]3CC[C@]12C [Rd, ginsenoside Rd]
262
3. CC(C)=CCC[C@](C)(O[C@@H]1O[C@H](CO[C@@H]2OC[C@H](O)[C@H](O)[C@H]2O)[C@@H](O)[C@H](O)[C@H]1O)[C@H]1CC[C@]2(C)[C@@H]1[C@H](O)C[C@@H]1[C@@]3(C)CC[C@H](O[C@@H]4O[C@H](CO)[C@@H](O)[C@H](O)[C@H]4O[C@@H]4O[C@H](CO)[C@@H](O)[C@H](O)[C@H]4O)C(C)(C)[C@@H]3CC[C@]12C [Rb2, ginsenoside Rb2]
512

---

Assay: Rat plasma pharmacokinetics after single-dose vehicle/SLE and digoxin or GE
Type: in vivo, Sprague-Dawley rats
Settings: female, Sprague-Dawley, rat, plasma, po, rats, control: single vehicle, 2 h later digoxin 0.5 mg/kg or GE 120 mg/kg ig; read-out: Tmax
MEASUREMENT KIND: Tmax

1. CC(C)=CCC[C@](C)(O[C@@H]1O[C@H](CO[C@@H]2O[C@H](CO)[C@@H](O)[C@H](O)[C@H]2O)[C@@H](O)[C@H](O)[C@H]1O)[C@H]1CC[C@]2(C)[C@@H]1[C@H](O)C[C@@H]1[C@@]3(C)CC[C@H](O[C@@H]4O[C@H](CO)[C@@H](O)[C@H](O)[C@H]4O[C@@H]4O[C@H](CO)[C@@H](O)[C@H](O)[C@H]4O)C(C)(C)[C@@H]3CC[C@]12C [Rb1, ginsenoside Rb1]
7.5 h
2. CC(C)=CCC[C@](C)(O[C@@H]1O[C@H](CO[C@@H]2OC[C@H](O)[C@H](O)[C@H]2O)[C@@H](O)[C@H](O)[C@H]1O)[C@H]1CC[C@]2(C)[C@@H]1[C@H](O)C[C@@H]1[C@@]3(C)CC[C@H](O[C@@H]4O[C@H](CO)[C@@H](O)[C@H](O)[C@H]4O[C@@H]4O[C@H](CO)[C@@H](O)[C@H](O)[C@H]4O)C(C)(C)[C@@H]3CC[C@]12C [Rb2, ginsenoside Rb2]
7 h
3. CC(C)=CCC[C@](C)(O[C@@H]1O[C@H](CO)[C@@H](O)[C@H](O)[C@H]1O)[C@H]1CC[C@]2(C)[C@@H]1[C@H](O)C[C@@H]1[C@@]3(C)CC[C@H](O[C@@H]4O[C@H](CO)[C@@H](O)[C@H](O)[C@H]4O[C@@H]4O[C@H](CO)[C@@H](O)[C@H](O)[C@H]4O)C(C)(C)[C@@H]3CC[C@]12C [Rd, ginsenoside Rd]
7.5 h

---

Assay: Rat plasma pharmacokinetics after 10-day vehicle/SLE and digoxin or GE
Format: in vivo, Sprague-Dawley rats
Settings: female, Sprague-Dawley, rat, plasma, po, rats, control: vehicle once a day for 10 days, day 11 digoxin 0.5 mg/kg or GE 120 mg/kg ig; read-out: t1/2 (converted)
MEASUREMENT KIND: half-life

1) C[C@H]1O[C@@H](O[C@H]2[C@@H](O)C[C@H](O[C@H]3[C@@H](O)C[C@H](O[C@H]4CC[C@@]5(C)[C@H](CC[C@@H]6[C@@H]5C[C@@H](O)[C@]5(C)[C@@H](C7=CC(=O)OC7)CC[C@]65O)C4)O[C@@H]3C)O[C@@H]2C)C[C@H](O)[C@@H]1O [Digoxin, digoxin, reference compound]
2.99 h
2) CC(C)=CCC[C@](C)(O[C@@H]1O[C@H](CO[C@@H]2O[C@H](CO)[C@@H](O)[C@H](O)[C@H]2O)[C@@H](O)[C@H](O)[C@H]1O)[C@H]1CC[C@]2(C)[C@@H]1[C@H](O)C[C@@H]1[C@@]3(C)CC[C@H](O[C@@H]4O[C@H](CO)[C@@H](O)[C@H](O)[C@H]4O[C@@H]4O[C@H](CO)[C@@H](O)[C@H](O)[C@H]4O)C(C)(C)[C@@H]3CC[C@]12C [Rb1, ginsenoside Rb1]
17.2 h
3) CC(C)=CCC[C@](C)(O[C@@H]1O[C@H](CO)[C@@H](O)[C@H](O)[C@H]1O)[C@H]1CC[C@]2(C)[C@@H]1[C@H](O)C[C@@H]1[C@@]3(C)CC[C@H](O[C@@H]4O[C@H](CO)[C@@H](O)[C@H](O)[C@H]4O[C@@H]4O[C@H](CO)[C@@H](O)[C@H](O)[C@H]4O)C(C)(C)[C@@H]3CC[C@]12C [Rd, ginsenoside Rd]
20.8 h
4) CC(C)=CCC[C@](C)(O[C@@H]1O[C@H](CO[C@@H]2OC[C@H](O)[C@H](O)[C@H]2O)[C@@H](O)[C@H](O)[C@H]1O)[C@H]1CC[C@]2(C)[C@@H]1[C@H](O)C[C@@H]1[C@@]3(C)CC[C@H](O[C@@H]4O[C@H](CO)[C@@H](O)[C@H](O)[C@H]4O[C@@H]4O[C@H](CO)[C@@H](O)[C@H](O)[C@H]4O)C(C)(C)[C@@H]3CC[C@]12C [Rb2, ginsenoside Rb2]
20.1 h
